- system: pSer33/Ser37 β-catenin peptide binding to β-TrCP (Homo sapiens, UniProt P35222+Q9Y297)
- Construct: titrating BODIPY-FL-labeled β-catenin peptides (residues 17-48) against 300 pM β-TrCP; 6xHis-SMT3 (N, cleaved yes)
- Sequence (Q9Y297 1-569 isoform Q9Y297-2): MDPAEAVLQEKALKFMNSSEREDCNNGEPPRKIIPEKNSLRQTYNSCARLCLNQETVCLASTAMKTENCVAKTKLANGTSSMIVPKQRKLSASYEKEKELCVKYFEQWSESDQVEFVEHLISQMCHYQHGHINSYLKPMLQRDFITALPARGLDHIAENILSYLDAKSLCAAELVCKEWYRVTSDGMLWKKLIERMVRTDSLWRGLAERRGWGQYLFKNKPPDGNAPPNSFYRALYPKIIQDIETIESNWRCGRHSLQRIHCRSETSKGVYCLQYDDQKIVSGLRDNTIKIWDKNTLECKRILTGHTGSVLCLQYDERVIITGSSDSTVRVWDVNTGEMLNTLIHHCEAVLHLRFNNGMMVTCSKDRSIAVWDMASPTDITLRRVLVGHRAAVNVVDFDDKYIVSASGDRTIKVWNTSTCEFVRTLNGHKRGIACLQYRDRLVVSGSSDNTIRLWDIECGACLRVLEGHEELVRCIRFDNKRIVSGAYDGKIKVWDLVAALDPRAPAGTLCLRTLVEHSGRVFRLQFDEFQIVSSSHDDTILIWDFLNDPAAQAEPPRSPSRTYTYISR
- Sequence (P63208 whole entry partner, the tested form may be a part): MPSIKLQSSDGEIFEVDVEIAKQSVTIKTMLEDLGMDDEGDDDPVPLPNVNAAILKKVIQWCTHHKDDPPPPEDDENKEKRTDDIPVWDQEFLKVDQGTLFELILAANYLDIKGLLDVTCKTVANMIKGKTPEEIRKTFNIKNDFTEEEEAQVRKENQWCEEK
- Sequence (P35222 17-48 limits assumed): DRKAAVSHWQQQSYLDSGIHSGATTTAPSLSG
- test.description: TR-FRET peptide binding and cooperativity assay, pSer33/Ser37 peptide
- condition.set: 500 μM NRX-1532; 300 pM β-TrCP; read-out: KD pS33/S37

>  <molecule>
O=C(Nc1cccc(-c2ccn[nH]2)c1)c1ccc(C(F)(F)F)[nH]c1=O [NRX-1532]

>  <Kd / nM>
68

$$$$

###

- system: pSer33/Ser37 β-catenin:β-TrCP interaction (Homo sapiens, UniProt P35222+Q9Y297)
- Construct: titrating BODIPY-FL-labeled β-catenin peptides (residues 17-48) against 300 pM β-TrCP; 6xHis-SMT3 (N, cleaved yes); made in house; host or cells: E. coli (co-expressed with BirA)
- Sequence (Q9Y297 1-569 isoform Q9Y297-2): as the sequence (Q9Y297 1-569 isoform Q9Y297-2) above
- Sequence (P63208 whole entry partner, the tested form may be a part): as the sequence (P63208 whole entry partner, the tested form may be a part) above
- Sequence (P35222 17-48 limits assumed): as the sequence (P35222 17-48 limits assumed) above
- test.description: TR-FRET binding enhancement assay, pSer33/Ser37 peptide
readout.name: EC50

>  <sample.smiles>
O=C(O)c1cccc(NC(=O)c2c(Oc3ccccc3)cc(C(F)(F)F)[nH]c2=O)c1

>  <readout.value>
80 µM

$$$$

Origin of values: paper PMC6441019
